Procedure Text: gradient 5% acetonitrile 3 min, to 50% in 2 min, to 85% in 15 min, held 3 min, 100 µL/min
Measurement Conditions: column: Zorbax Extend-C18 2.1 x 50 mm; eluents: water / acetonitrile, 0.1% formic acid
Observable: RP-LC retention time (s)

{"columns": ["Compound", "Observable", "Scale Unit", "Endpoint Value"],
 "data": [
  ["Cc1noc([C@@H]2CN(Cc3c(F)cccc3F)C[C@H]2CO)n1", "RP-LC retention time", "s", 562],
  ["COCCCN(CC(=O)N1CCNCC1)C(=O)c1ccc(F)c(Cl)c1", "RP-LC retention time", "s", 596],
  ["COc1cc(NC(=O)C2CCN(S(=O)(=O)c3ccc4c(c3)NC(=O)C(C)O4)CC2)cc(OC)c1 (stereo not given)", "RP-LC retention time", "s", 811],
  ["Cc1ccc(C(=O)CC2(O)C(=O)Nc3ccccc32)c(C)c1 (stereo not given)", "RP-LC retention time", "s", 759],
  ["O=C(c1ccccc1)N1CCc2ccc(NS(=O)(=O)c3cccs3)cc2C1", "RP-LC retention time", "s", 759]
]}

---

Procedure Text: gradient 5% acetonitrile 3 min, to 50% in 2 min, to 85% in 15 min, held 3 min, 100 µL/min
Measurement Conditions: column: Zorbax Extend-C18 2.1 x 50 mm; eluents: water / acetonitrile, 0.1% formic acid
Observable: RP-LC retention time (s)

1: CCC(C)C(=O)NC1CCN(C2=NS(=O)(=O)C(c3ccc(F)cc3)=C2C)CC1 (stereo not drawn)
2: COc1cccc(-n2c(=O)c(C(=O)Nc3cccc(F)c3)c(O)c3cccnc32)c1
3: Cc1ncsc1CN1CCCC(n2c(C)cnc2-c2cccnc2)C1 (stereo not drawn)
## Input In a descending ranking, list each entry from above by its RP-LC retention time, from the largest value down to the smallest. Provide the labels, sequenced as the question asks.
## Output 2, 1, 3
(2: 1250 s, 1: 785 s, 3: 527 s)

---

Procedure Text: gradient 5% acetonitrile 3 min, to 50% in 2 min, to 85% in 15 min, held 3 min, 100 µL/min
Measurement Conditions: column: Zorbax Extend-C18 2.1 x 50 mm; eluents: water / acetonitrile, 0.1% formic acid
Observable: RP-LC retention time (s)

{"columns": ["Compound", "Scale Unit", "Endpoint Value"],
 "data": [
  ["CCc1noc(-c2ccnc(-n3cnc(C(=O)NC4CCCCC4)c3)c2)n1", "s", 915],
  ["O=C(Cc1csc2nc(-c3ccccc3)cn12)Nc1ccc(Cl)cc1", "s", 868],
  ["O=C(c1ccc(OCC2CCN(C(=O)c3cccs3)CC2)cc1)N1CCOCC1", "s", 747]
]}

1: Cc1ccc(CNC(=O)Cn2cnc3nc(N4CCCC(C(=O)NC(C)C)C4)sc3c2=O)cc1 (stereo not given)
2: COC(=O)c1ccccc1NC(=O)CSc1cc(-n2nc(C)cc2C)ncn1
## Input Recorded RP-LC retention time values differ for 1 and 2 ; which one is higher? Selection: enter the item's label.
## Output 2
(2: 1130 s, 1: 710 s)

---

Procedure Text: gradient 5% acetonitrile 3 min, to 50% in 2 min, to 85% in 15 min, held 3 min, 100 µL/min
Measurement Conditions: column: Zorbax Extend-C18 2.1 x 50 mm; eluents: water / acetonitrile, 0.1% formic acid
Observable: RP-LC retention time (s)

{"columns": ["Molecule", "Scale Unit", "RP-LC retention time"],
 "data": [
  ["Cc1ccc(C(C)NC(=O)Cn2cc(-c3noc(-c4cccnc4)n3)nc2C)cc1 (stereo not given)", "s", 715],
  ["Cc1cc(C)cc(Nc2c(C(=O)N3CCC(C)CC3)cnc3nc(C)ccc23)c1", "s", 693],
  ["Cc1cccc(OCCc2noc(C3CNC3)n2)c1", "s", 644]
]}

P: Cn1cnc(S(=O)(=O)N2CCC(Cc3nncn3Cc3ccccc3)CC2)c1
Q: CCCOc1nc2ccccc2nc1N1CCCC(C(=O)N2CCN(c3ccc(OC)cc3)CC2)C1 (stereo not given)
## Input // pick min by RP-LC retention time: P , Q Label of pick, please.
## Output P

---

Procedure Text: gradient 5% acetonitrile 3 min, to 50% in 2 min, to 85% in 15 min, held 3 min, 100 µL/min
Measurement Conditions: column: Zorbax Extend-C18 2.1 x 50 mm; eluents: water / acetonitrile, 0.1% formic acid
Observable: RP-LC retention time (s)

Guide cases for RP-LC retention time, answers given:
{"columns": ["Compound", "Observable", "Endpoint Value"],
 "data": [
  ["CC(C)(C)c1ccc(OCC(=O)N(Cc2ccc(Br)o2)C2CCS(=O)(=O)C2)cc1 (centres undefined)", "RP-LC retention time", 1060],
  ["COc1ccc(Nc2c(-c3ccc(OC)c(OC)c3)nc3cnccn23)cc1OC", "RP-LC retention time", 672],
  ["CCCN1C(=O)c2cc(S(=O)(=O)Nc3cccc(Cl)c3)ccc2Oc2cccnc21", "RP-LC retention time", 1120],
  ["CCCn1cc(CCNS(=O)(=O)c2ccc(C)cc2)c2cccnc21", "RP-LC retention time", 841],
  ["O=C(Nc1ccccc1F)c1cc(C2CC2)on1", "RP-LC retention time", 655]
]}

a: Cc1ccc(-c2csc(NC(=O)c3sc(C)nc3C)n2)cc1
b: CCCC1c2nccn2CCCN1C(=O)c1c(C)noc1C (centres undefined)
## Input Please compare: a and b . Report which one has the smaller RP-LC retention time value. // return label of chosen record
## Output b

---

Procedure Text: gradient 5% acetonitrile 3 min, to 50% in 2 min, to 85% in 15 min, held 3 min, 100 µL/min
Measurement Conditions: column: Zorbax Extend-C18 2.1 x 50 mm; eluents: water / acetonitrile, 0.1% formic acid
Observable: RP-LC retention time (s)

Guide cases for RP-LC retention time, answers given:
{"columns": ["Compound", "Endpoint Value"],
 "data": [
  ["Cc1cc(C)cc(C(=O)N2CCC3(CC2)NC(=O)c2cc(Cl)ccc2N3C)c1", 850],
  ["Cc1cc(C)c2c(N3CCCC3)nc(C(=O)NCc3cccs3)nc2n1", 643],
  ["COc1ccc(C(=O)N2CCN(c3ccc(-c4nc(C)cs4)cn3)CC2)cc1", 805]
]}

a: Cc1nn(-c2ccc(F)cc2)c(C)c1S(=O)(=O)N1CCC(C(=O)Nc2ccccc2F)CC1
b: Cc1oc2c(c1C(=O)NCCc1ccccc1Cl)C1=NCCN1C=N2
## Input Which record would sort first by descending RP-LC retention time, a or b ? Kindly state the label of the option you pick.
## Output a

---

Procedure Text: gradient 5% acetonitrile 3 min, to 50% in 2 min, to 85% in 15 min, held 3 min, 100 µL/min
Measurement Conditions: column: Zorbax Extend-C18 2.1 x 50 mm; eluents: water / acetonitrile, 0.1% formic acid
Observable: RP-LC retention time (s)

Example results:
{"columns": ["Compound", "Observable", "Endpoint Value"],
 "data": [
  ["CCOc1ccc(S(=O)(=O)N2C[C@@H]3C[C@H](NC(=O)c4ccccc4)[C@H]2C3)cc1", "RP-LC retention time", 900],
  ["O=C(NCc1ccc2c(c1)OCO2)c1cn2c(n1)COCC2", "RP-LC retention time", 616],
  ["CN1C(=O)c2ccccc2C(C(=O)NCCCN2CCc3ccccc3C2)C1c1cccs1 (stereo not given)", "RP-LC retention time", 647]
]}

A: CC(C)n1c(CCNC(=O)c2ccc(C#N)cc2)nc2cccnc21
B: CCCOc1nc2ccccc2nc1N1CCCC(C(=O)Nc2ccc(Cl)cc2)C1 (stereo not given)
## Input Field: lower recorded RP-LC retention time (choose A or B ) Kindly state the label of the option you pick.
## Output A

---

Procedure Text: gradient 5% acetonitrile 3 min, to 50% in 2 min, to 85% in 15 min, held 3 min, 100 µL/min
Measurement Conditions: column: Zorbax Extend-C18 2.1 x 50 mm; eluents: water / acetonitrile, 0.1% formic acid
Observable: RP-LC retention time (s)

{"columns": ["Compound", "Endpoint Value"],
 "data": [
  ["CCn1cc(S(=O)(=O)N2[C@H]3CC[C@@H]2c2cnc(-c4ccc(F)cc4)nc2C3)cn1", 900],
  ["O=C1NC2(CCN(C(=O)c3cc(F)cc(F)c3)CC2)Nc2c(Cl)cccc21", 760],
  ["CCOCCCNC(=O)N1c2ccccc2CC1c1nc(C(C)C)no1 (stereo not given)", 901],
  ["Cc1noc(C2CCCCCN2C(=O)NC(C)C)n1 (stereo not given)", 708],
  ["CCn1c(CCNC(=O)c2ccc(N(C)C)cc2)nc2cccnc21", 625]
]}

a: CCN(CC)c1ncc2c(n1)CCC(C(=O)Nc1ccc(OC)cc1OC)C2 (stereo not given)
b: COc1cccc(-n2c(=O)c(C(=O)NCc3cc(F)cc(F)c3)c(O)c3cccnc32)c1
## Input RP-LC retention time comparison. Which is larger, a or b ? Identify your selection by its label.
## Output b
(b: 1170 s, a: 726 s)
